This collection of values is drawn from ChEMBL document CHEMBL3885861.

Organism: Rattus norvegicus
experimentalDetails: Open TG-GATES - Regimen: Daily Repeat
Type: toxicity, organism-based, Sprague-Dawley
Design: regimen Daily Repeat, gender Male, age 6 weeks
experimentalSetup: in vivo, po, 0 mg/kg, […], tissue Plasma, route gavage, dose level Control, time 28 day
# TC values compiled below
Numbers only here, please. The scale is mg/dL.

Reference set, count: 8
molecule: CCc1cc(C(N)=S)ccn1 [ETHIONAMIDE]
TC / mg/dL: 69

molecule: NC(=O)N/N=C/c1ccc([N+](=O)[O-])o1
TC / mg/dL: 60.6

molecule: CCCC(CCC)C(=O)O
TC / mg/dL: 66.4

molecule: COc1ccc(Cc2nccc3cc(OC)c(OC)cc23)cc1OC
TC / mg/dL: 73.6

molecule: Clc1ccccc1CN1CCc2sccc2C1
TC / mg/dL: 63

molecule: CN(C)CCC=C1c2ccccc2CCc2ccccc21
TC / mg/dL: 62

molecule: C[C@H](CS)C(=O)N1CCC[C@H]1C(=O)O
TC / mg/dL: 69.2

molecule: CSc1ccc2c(c1)N(CCC1CCCCN1C)c1ccccc1S2 (centres undefined)
TC / mg/dL: 87.4

State its TC for this molecule: CO[C@H]1/C=C/O[C@@]2(C)Oc3c(C)c(O)c4c(O)c(c(/C=N/N5CCN(C)CC5)c(O)c4c3C2=O)NC(=O)/C(C)=C\C=C\[C@H](C)[C@H](O)[C@@H](C)[C@@H](O)[C@@H](C)[C@H](OC(C)=O)[C@@H]1C
79.6

###

Cl values by entry
Species on record: Rattus norvegicus
experimentalDetails: Open TG-GATES - Regimen: Daily Repeat
Format: toxicity, organism-based, Sprague-Dawley
Parameters: regimen Daily Repeat, gender Male, age 6 weeks
experimentalSetup: in vivo, po, 0 mg/kg, […], tissue Plasma, route gavage, dose level Control, time 14 day
Output spec: scalar in meq/L, unitless text.

Study these solved cases before continuing.
molecule: NC(=O)N/N=C/c1ccc([N+](=O)[O-])o1
assayMetric: Cl
unitSymbol: meq/L
valueReported: 105.4
//
molecule: CCc1cc(C(N)=S)ccn1 [ETHIONAMIDE]
assayMetric: Cl
unitSymbol: meq/L
valueReported: 105.6
//
molecule: NC(=O)N1c2ccccc2C=Cc2ccccc21 [CARBAMAZEPINE]
assayMetric: Cl
unitSymbol: meq/L
valueReported: 102.4
//
molecule: Cn1c(=O)c2[nH]cnc2n(C)c1=O.O
assayMetric: Cl
unitSymbol: meq/L
valueReported: 107
//
molecule: O=C(O)c1cc(/N=N/c2ccc(S(=O)(=O)Nc3ccccn3)cc2)ccc1O
assayMetric: Cl
unitSymbol: meq/L
valueReported: 103.4

Identify Cl associated with the molecule COc1ccc(Cc2nccc3cc(OC)c(OC)cc23)cc1OC
106.6

Output Cl of COc1ccc2c(c1)c(CC(=O)O)c(C)n2C(=O)c1ccc(Cl)cc1
105.6

Report Cl, nothing else, for this molecule: CC(=O)Oc1ccccc1C(=O)O
103

Please list Cl recorded for the molecule CN(C)CCC=C1c2ccccc2CCc2ccccc21
106

###

Species: Rattus norvegicus
experimentalDetails: Open TG-GATES - Regimen: Single
Type: toxicity, organism-based, Sprague-Dawley
Parameters: regimen Single, gender Male, age 6 weeks
experimentalSetup: in vivo, po, 0 mg/kg, 9 h, tissue Blood, route gavage, dose level Control
Parameter Fbg: see the listing below.

Below, 2 compounds whose answers are already recorded.
compound: Cn1c(=O)c2[nH]cnc2n(C)c1=O.O [THEOPHYLLINE]
Fbg: 310.2 mg/dL
//
compound: O=C(O)c1cn(C2CC2)c2cc(N3CCNCC3)c(F)cc2c1=O [CIPROFLOXACIN]
Fbg: 213.4 mg/dL

For the compound NC(=O)N/N=C/c1ccc([N+](=O)[O-])o1 [NITROFURAZONE] , give its measured Fbg value.
260 mg/dL

Given the compound C[C@H](CS)C(=O)N1CCC[C@H]1C(=O)O [CAPTOPRIL] , write its reported Fbg.
207.2 mg/dL

Please list Fbg recorded for the compound COc1ccc(Cc2nccc3cc(OC)c(OC)cc23)cc1OC [PAPAVERINE]
312.8 mg/dL

Tell me measured Fbg for CN(C)CCC=C1c2ccccc2CCc2ccccc21 [AMITRIPTYLINE] please.
295.6 mg/dL

Please give the documented Fbg of CSc1ccc2c(c1)N(CCC1CCCCN1C)c1ccccc1S2 (configuration not stated) [THIORIDAZINE]
221.4 mg/dL

Entry CC(=O)Oc1ccccc1C(=O)O [ASPIRIN] needs its Fbg filled in; supply it.
224 mg/dL

Indicate the recorded Fbg value for this compound: CCc1cc(C(N)=S)ccn1 [ETHIONAMIDE]
213.8 mg/dL

Note Fbg for the compound shown: O=C(O)c1cc(/N=N/c2ccc(S(=O)(=O)Nc3ccccn3)cc2)ccc1O [SULFASALAZINE]
213.2 mg/dL

Query Fbg for NC(=O)N1c2ccccc2C=Cc2ccccc21 [CARBAMAZEPINE]
220 mg/dL

Read off the recorded Fbg for Clc1ccccc1CN1CCc2sccc2C1 [TICLOPIDINE]
222 mg/dL
